Entry source: patent EP0999856B1

# system_name: PMN LTB4 receptor (Homo sapiens, UniProt Q15722)
# Sequence (Q15722 whole entry): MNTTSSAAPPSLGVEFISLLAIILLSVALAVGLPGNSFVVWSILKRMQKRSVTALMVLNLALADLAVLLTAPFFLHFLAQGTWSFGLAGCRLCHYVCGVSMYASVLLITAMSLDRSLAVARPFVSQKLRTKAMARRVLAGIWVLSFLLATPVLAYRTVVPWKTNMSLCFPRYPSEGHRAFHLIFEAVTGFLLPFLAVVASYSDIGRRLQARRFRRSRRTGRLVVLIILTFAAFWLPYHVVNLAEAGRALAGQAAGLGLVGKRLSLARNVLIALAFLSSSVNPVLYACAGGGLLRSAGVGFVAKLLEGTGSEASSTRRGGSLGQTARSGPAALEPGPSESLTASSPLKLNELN
# test_description: LTB4 Human Neutrophil (PMN) Binding Assay
pKi: −log10 of the molar value.
measurement_name: pKi

molecule	value_reported
CCc1cc(-c2ccc(F)cc2)c(O)cc1OCCCCC(C)(C)CNC(=O)c1ccc(NN=Cc2ccccc2)nc1 [IIa]	8.10
